- Tested on: Escherichia coli TOP10
- assay: shrunken log2 fold change of peptide-encoding DNA abundance (4.5 h post-induction vs induction); higher = less antimicrobial activity (less host growth inhibition)
- recordedConditions: time post-induction: 4.5 h; library: site-saturation at positions 5, 18, 19, 20
Would you please tag the item 1 (yes) when its shrunken log2 fold change is 0.02 or above, and 0 (no) when it is below?

Example cases with answers are listed next.
>>> labelclass("RRIRARPPRLPRPRPRPKCHPRP")
"1 (yes)"
>>> labelclass("RRIRIRPPRLPRPRPRPAYSPRP")
"0 (no)"
>>> labelclass("RRIRWRPPRLPRPRPRPRSHPRP")
"1 (yes)"
>>> labelclass("RRIRQRPPRLPRPRPRPSHHPRP")
"0 (no)"
>>> labelclass("RRIRSRPPRLPRPRPRPLKDPRP")
"0 (no)"
>>> labelclass("RRIRWRPPRLPRPRPRPFPWPRP")
"0 (no)"
>>> labelclass("RRIRRRPPRLPRPRPRPTMCPRP")
"1 (yes)"
>>> labelclass("RRIRFRPPRLPRPRPRPSYIPRP")
"0 (no)"

Given the entry `RRIRTRPPRLPRPRPRPVNHPRP` , answer whether its shrunken log2 fold change meets or surpasses 0.02.
0 (no)

Given the entry `RRIRKRPPRLPRPRPRPDWLPRP` , answer whether its shrunken log2 fold change meets or surpasses 0.02.
1 (yes)

Given the entry `RRIRARPPRLPRPRPRPGHFPRP` , answer whether its shrunken log2 fold change meets or surpasses 0.02.
1 (yes)

Given the entry `RRIRGRPPRLPRPRPRPFFVPRP` , answer whether its shrunken log2 fold change meets or surpasses 0.02.
1 (yes)

Given the entry `RRIRSRPPRLPRPRPRPQGDPRP` , answer whether its shrunken log2 fold change meets or surpasses 0.02.
1 (yes)

Given the entry `RRIRKRPPRLPRPRPRPNSYPRP` , answer whether its shrunken log2 fold change meets or surpasses 0.02.
1 (yes)

Given the entry `RRIRNRPPRLPRPRPRPQPHPRP` , answer whether its shrunken log2 fold change meets or surpasses 0.02.
0 (no)

###

Catalogue of sequences with associated shrunken log2 fold change
- System: Escherichia coli TOP10
- assay: shrunken log2 fold change of peptide-encoding DNA abundance (4.5 h post-induction vs induction); higher = less antimicrobial activity (less host growth inhibition)
- recordedConditions: time post-induction: 4.5 h; library: site-saturation at positions 5, 18, 19, 20

Some entries whose results are on file:
>>> experimentalvalue("RRIRGRPPRLPRPRPRPMNAPRP")
0.493
>>> experimentalvalue("RRIRKRPPRLPRPRPRPNVMPRP")
-0.122
>>> experimentalvalue("RRIRIRPPRLPRPRPRPNHRPRP")
0.0615

Request - read-out shrunken log2 fold change | tested on Escherichia coli TOP10 | sequence `RRIRTRPPRLPRPRPRPDYVPRP`
-0.0882

Request - read-out shrunken log2 fold change | tested on Escherichia coli TOP10 | sequence `RRIRERPPRLPRPRPRPKCPPRP`
0.0136

Request - read-out shrunken log2 fold change | tested on Escherichia coli TOP10 | sequence `RRIRIRPPRLPRPRPRPPYSPRP`
0.0677

Request - read-out shrunken log2 fold change | tested on Escherichia coli TOP10 | sequence `RRIRYRPPRLPRPRPRPQWKPRP`
-0.01

Request - read-out shrunken log2 fold change | tested on Escherichia coli TOP10 | sequence `RRIRVRPPRLPRPRPRPNVAPRP`
0.177

Request - read-out shrunken log2 fold change | tested on Escherichia coli TOP10 | sequence `RRIRKRPPRLPRPRPRPWVRPRP`
-0.0489

Request - read-out shrunken log2 fold change | tested on Escherichia coli TOP10 | sequence `RRIRQRPPRLPRPRPRPPNNPRP`
-0.259

Request - read-out shrunken log2 fold change | tested on Escherichia coli TOP10 | sequence `RRIRPRPPRLPRPRPRPLTAPRP`
0.212

Request - read-out shrunken log2 fold change | tested on Escherichia coli TOP10 | sequence `RRIRHRPPRLPRPRPRPTRRPRP`
0.271

Request - read-out shrunken log2 fold change | tested on Escherichia coli TOP10 | sequence `RRIRRRPPRLPRPRPRPVCIPRP`
0.0361

Request - read-out shrunken log2 fold change | tested on Escherichia coli TOP10 | sequence `RRIRIRPPRLPRPRPRPRNQPRP`
-0.542

Request - read-out shrunken log2 fold change | tested on Escherichia coli TOP10 | sequence `RRIRPRPPRLPRPRPRPWDVPRP`
0.308

###

- Tested on: Escherichia coli TOP10
- assay: shrunken log2 fold change of peptide-encoding DNA abundance (4.5 h post-induction vs induction); higher = less antimicrobial activity (less host growth inhibition)
- recordedConditions: time post-induction: 4.5 h; library: site-saturation at positions 5, 18, 19, 20
Would you please tag the item T when its shrunken log2 fold change is 0.005 or above, and F when it is below?

>>> labelclass("RRIRPRPPRLPRPRPRPNDFPRP")
"F"

Given the entry `RRIRARPPRLPRPRPRPWSWPRP` , answer whether its shrunken log2 fold change meets or surpasses 0.005.
T

Given the entry `RRIRERPPRLPRPRPRPLNHPRP` , answer whether its shrunken log2 fold change meets or surpasses 0.005.
F

Given the entry `RRIRFRPPRLPRPRPRPSATPRP` , answer whether its shrunken log2 fold change meets or surpasses 0.005.
T

###

- System: Escherichia coli TOP10
- assay: shrunken log2 fold change of peptide-encoding DNA abundance (4.5 h post-induction vs induction); higher = less antimicrobial activity (less host growth inhibition)
- recordedConditions: time post-induction: 4.5 h; library: site-saturation at positions 5, 18, 19, 20
Lab note: class by shrunken log2 fold change, see 0 = under -0.06, 1 = from -0.06 up to 0.09, 2 = 0.09 and over

>>> labelclass("RRIRRRPPRLPRPRPRPCALPRP")
0

Next up:
State the class of the sequence shown: `RRIRMRPPRLPRPRPRPAYDPRP`
1

###

- Test system: Escherichia coli TOP10
- assay: shrunken log2 fold change of peptide-encoding DNA abundance (4.5 h post-induction vs induction); higher = less antimicrobial activity (less host growth inhibition)
- recordedConditions: time post-induction: 4.5 h; library: site-saturation at positions 5, 18, 19, 20
Catalogue of sequences with associated shrunken log2 fold change
API doc: respond with a numeric literal and nothing else, no unit.

Some entries whose results are on file:
>>> experimentalvalue("RRIRDRPPRLPRPRPRPNSAPRP")
-1.36
>>> experimentalvalue("RRIRTRPPRLPRPRPRPQVMPRP")
-0.133
>>> experimentalvalue("RRIRNRPPRLPRPRPRPRGIPRP")
-0.0954
>>> experimentalvalue("RRIRVRPPRLPRPRPRPEPDPRP")
0.242
>>> experimentalvalue("RRIRERPPRLPRPRPRPLYQPRP")
-0.176

So what does the record say about shrunken log2 fold change for `RRIRIRPPRLPRPRPRPMVLPRP` ?
-0.071

So what does the record say about shrunken log2 fold change for `RRIRFRPPRLPRPRPRPCRHPRP` ?
0.0121

So what does the record say about shrunken log2 fold change for `RRIRCRPPRLPRPRPRPGMQPRP` ?
-0.255

So what does the record say about shrunken log2 fold change for `RRIRYRPPRLPRPRPRPARTPRP` ?
-0.298

So what does the record say about shrunken log2 fold change for `RRIRQRPPRLPRPRPRPNGPPRP` ?
-0.011

So what does the record say about shrunken log2 fold change for `RRIRTRPPRLPRPRPRPGMCPRP` ?
-0.139

So what does the record say about shrunken log2 fold change for `RRIRSRPPRLPRPRPRPSNTPRP` ?
-0.748

So what does the record say about shrunken log2 fold change for `RRIRFRPPRLPRPRPRPWPCPRP` ?
-0.229

###

- Tested on: Escherichia coli TOP10
- assay: shrunken log2 fold change of peptide-encoding DNA abundance (4.5 h post-induction vs induction); higher = less antimicrobial activity (less host growth inhibition)
- recordedConditions: time post-induction: 4.5 h; library: site-saturation at positions 5, 18, 19, 20
Lab note: class by shrunken log2 fold change, see low end: < -0.2; middle: ≥ -0.2 and < 0.2; high end: ≥ 0.2

Example cases with answers are listed next.
>>> labelclass("RRIRHRPPRLPRPRPRPWCHPRP")
"middle"
>>> labelclass("RRIRERPPRLPRPRPRPRYCPRP")
"low end"
>>> labelclass("RRIRSRPPRLPRPRPRPCKVPRP")
"low end"

State the class of the sequence shown: `RRIRPRPPRLPRPRPRPTENPRP`
middle

State the class of the sequence shown: `RRIRERPPRLPRPRPRPKAPPRP`
middle

###

Catalogue of sequences with associated shrunken log2 fold change
- Test system: Escherichia coli TOP10;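 also: peptides expressed intracellularly from a pBAD plasmid library in pooled LB shake-flask culture, induced with 0.3% L-arabinose, DNA abundance read by NGS, three biological replicates, DESeq2 with apeglm shrinkage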
- assay: shrunken log2 fold change of peptide-encoding DNA abundance (4.5 h post-induction vs induction); higher = less antimicrobial activity (less host growth inhibition)
- recordedConditions: time post-induction: 4.5 h; library: site-saturation at positions 5, 18, 19, 20
API doc: respond with a numeric literal and nothing else, no unit.

>>> experimentalvalue("RRIRLRPPRLPRPRPRPLFCPRP")
-0.142
>>> experimentalvalue("RRIRDRPPRLPRPRPRPFVLPRP")
0.045
>>> experimentalvalue("RRIRWRPPRLPRPRPRPWMTPRP")
0.333
>>> experimentalvalue("RRIRDRPPRLPRPRPRPFPIPRP")
0.0144
>>> experimentalvalue("RRIRFRPPRLPRPRPRPPRSPRP")
0.488
>>> experimentalvalue("RRIRLRPPRLPRPRPRPMGHPRP")
-0.0276
>>> experimentalvalue("RRIRIRPPRLPRPRPRPPREPRP")
0.535
>>> experimentalvalue("RRIRDRPPRLPRPRPRPIFPPRP")
0.19
>>> experimentalvalue("RRIRARPPRLPRPRPRPATCPRP")
0.03
>>> experimentalvalue("RRIRGRPPRLPRPRPRPSFKPRP")
-0.0759

Attention now turns to another entry.
So what does the record say about shrunken log2 fold change for `RRIRERPPRLPRPRPRPRQFPRP` ?
-0.174
